Every entry's value here was drawn from patent US20260200926A1.

- measured on: Human TREM2 (Homo sapiens, UniProt Q9NZC2)
- Construct: expressed in transfected cells
- Sequence (Q9NZC2 19-230): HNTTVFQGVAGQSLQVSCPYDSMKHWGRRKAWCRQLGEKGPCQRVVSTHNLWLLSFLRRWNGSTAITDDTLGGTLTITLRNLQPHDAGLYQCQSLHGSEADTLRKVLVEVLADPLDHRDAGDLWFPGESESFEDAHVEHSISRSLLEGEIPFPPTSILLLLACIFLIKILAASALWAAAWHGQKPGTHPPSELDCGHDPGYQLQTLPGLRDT
- Sequence (O43914 22-113 partner): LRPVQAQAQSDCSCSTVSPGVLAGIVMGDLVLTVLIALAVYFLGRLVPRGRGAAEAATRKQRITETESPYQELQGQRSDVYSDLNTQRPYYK
- measurement protocol: Human TREM2 activity: cellular phosphorylation of Syk (AlphaLISA SureFire Ultra p-SYK) in HEK293/DAP12+TREM2 stable cell line
- Assay type: cell-based
- experimental context: phospho-Syk AlphaLISA signal, HEK293/DAP12+TREM2 cells; concentration giving 50% of maximal response; read-out: EC50
pEC50: −log10 of the molar value.
measure: pEC50

Here are 5 compounds together with their reported answers.
compound="C[C@@H]1CN(c2nc(-c3ccc(F)cc3F)c3nc(C(F)(F)F)n(C)c(=O)c3n2)C[C@H](c2cnn(C3CC3)c2)O1 (single isomer, unassigned) [Example 183B]" reported_measurement="> 9.00"
compound="Cc1nc2c(-c3ccc(Cl)cc3F)cc(N3C[C@@H](c4cnn(C)c4)OC(C)(C)C3)nc2c(=O)n1C (single isomer, unassigned) [Example 142A]" reported_measurement="6.00 to 7.00"
compound="Cc1nc2c(-c3cc(C(F)(F)F)nn3C)nc(N3CCOC(c4cnn(C)c4)C3)nc2c(=O)n1C (stereo not shown) [Example 99]" reported_measurement="6.00 to 7.00"
compound="Cc1cc([C@@H]2CN(c3cc4c(=O)n(C)c(C)nc4c(-c4cc(F)c(F)cc4F)n3)CC(C)(C)O2)ccn1 (single isomer, unassigned) [Example 160A]" reported_measurement="8.00 to 9.00"
compound="Cc1nc2c(-c3cc(F)c(F)cc3F)nc(N3C[C@H](c4cnn(C)c4)OC(C)(C)C3)nc2c(=O)n1C (single isomer, unassigned) [Example 101B]" reported_measurement="< 6.00"

Prompt: GET /values?readout=pEC50&item= Cc1nc2c(-c3ccc(Cl)cc3F)cc(N3CCOC(c4cnn(C)c4)C3)nc2c(=O)n1C (stereo not shown) [Example 104]
Response: 6.00 to 7.00

Prompt: GET /values?readout=pEC50&item= Cc1nc2c(-c3ccc(Cl)cc3F)nc(C3CCOC(c4cnn(C)c4)C3)nc2c(=O)n1C (stereo not shown) [Example 17]
Response: 6.00 to 7.00

Prompt: GET /values?readout=pEC50&item= C[C@H]1CN(c2cc3c(=O)n(C)c(C(F)(F)F)nc3c(-c3ccc(F)cc3F)n2)C[C@@H](c2cnn(C3CC3)c2)O1 (single isomer, unassigned) [Example 193A]
Response: 8.00 to 9.00

Prompt: GET /values?readout=pEC50&item= Cn1c(C(F)(F)F)nc2c(-c3cc(F)c(F)cc3F)nc([C@@H]3CCO[C@H](c4cnn(C5CC5)c4)C3)nc2c1=O (single isomer, unassigned) [Example 186A]
Response: 8.00 to 9.00

Prompt: GET /values?readout=pEC50&item= Cc1nc2c(C3CCC(F)(F)CC3)nc(N3CCOC(c4cnn(C)c4)C3)nc2c(=O)n1C (stereo not shown) [Example 11]
Response: 6.00 to 7.00

Prompt: GET /values?readout=pEC50&item= Cc1nc2c(-c3cc(F)c(F)cc3F)nc(N3C[C@H](c4cnn(C)c4)OC4(CCC4)C3)cc2c(=O)n1C (single isomer, unassigned) [Example 152B]
Response: < 6.00

Prompt: GET /values?readout=pEC50&item= Cc1nc2c(-c3ccc(Cl)cc3F)nc(N3CCOC(c4cnn(C)c4)C3)nc2c(=O)[nH]1 (stereo not shown) [Example 60]
Response: 6.00 to 7.00

Prompt: GET /values?readout=pEC50&item= Cc1nc2c(-c3ccc(C(F)(F)F)nc3)nc(N3CCOC(c4cnn(C)c4)C3)nc2c(=O)n1C (stereo not shown) [Example 4]
Response: 6.00 to 7.00

---

Measured Emax, listed per entry for reference.
- measured on: Human TREM2 (Homo sapiens, UniProt Q9NZC2)
- Construct: expressed in transfected cells
- measurement protocol: Human TREM2 activity: cellular phosphorylation of Syk (AlphaLISA SureFire Ultra p-SYK) in HEK293/DAP12+TREM2 stable cell line
- Assay type: cell-based
- experimental context: HEK293; maximal response relative to reference agonist example 1B (remaining examples); read-out: Emax

compound="Cc1nc2c(-c3ccc(Cl)cc3F)nc(N3CC[C@@H](Oc4cnn(C)c4)C3)nc2c(=O)n1C [Example 64]" measured_on="Human TREM2 (Homo sapiens, UniProt Q9NZC2)" reported_measurement="< 75%"

Prompt: GET /values?readout=Emax&item= Cc1nc2c(-c3ccc(C(F)(F)F)cc3F)nc(N3C[C@H](c4cnn(C)c4)OC4(CCC4)C3)cc2c(=O)n1C (single isomer, unassigned) [Example 143B]
Response: < 75%

Prompt: GET /values?readout=Emax&item= Cc1cc([C@H]2CN(c3cc4c(=O)n(C)c(C)nc4c(-c4ccc(Cl)cc4F)n3)CC(C)(C)O2)ccn1 (single isomer, unassigned) [Example 172B]
Response: 75 to 110%

Prompt: GET /values?readout=Emax&item= Cc1nc2c(-c3ccc(Cl)cc3F)nc(N3CCOC(C)(C)C3)nc2c(=O)n1C [Example 57]
Response: < 75%

Prompt: GET /values?readout=Emax&item= Cc1cc2c(-c3ccc(Cl)cc3F)nc(N3CCOC(c4cnn(C)c4)C3)nc2c(=O)n1C (stereo not shown) [Example 114]
Response: 75 to 110%

Prompt: GET /values?readout=Emax&item= Cc1nc2c(-c3ccc(C(F)(F)F)cc3F)nc(N3CCO[C@@H](c4cnn(C)c4)C3)nc2c(=O)n1C (single isomer, unassigned) [Example 25B]
Response: < 75%

Prompt: GET /values?readout=Emax&item= Cc1nc2c(-c3ccc(Cl)cc3F)nc(N3C[C@H](c4cnn(C)c4)OC4(CCC4)C3)nc2c(=O)n1C (single isomer, unassigned) [Example 109B]
Response: < 75%

Prompt: GET /values?readout=Emax&item= Cn1cc(C2CN(c3nc(-c4ccc(Cl)cc4F)c4ncn(C)c(=O)c4n3)CCO2)cn1 (stereo not shown) [Example 187]
Response: < 75%

Prompt: GET /values?readout=Emax&item= Cc1nc2c(-c3cc(F)c(F)cc3F)nc([C@@H]3CCO[C@H](c4cnn(C)c4)C3)nc2c(=O)n1C (single isomer, unassigned) [Example 38A]
Response: < 75%

Prompt: GET /values?readout=Emax&item= Cc1nc2c(-c3ccc(Cl)cc3F)nc(N3CCOC(c4cnn(C5CN(C)C5)c4)C3)nc2c(=O)n1C (stereo not shown) [Example 42]
Response: < 75%

Prompt: GET /values?readout=Emax&item= Cc1cc([C@@H]2CN(c3nc(-c4cc(F)c(F)cc4F)c4nc(C)n(C)c(=O)c4n3)CCO2)ccn1 (single isomer, unassigned) [Example 123A]
Response: > 110%

Prompt: GET /values?readout=Emax&item= Cc1nc2c(-c3ccc(Cl)cc3F)nc(N3CCCC(N4CCOCC4)C3)nc2c(=O)n1C (stereo not shown) [Example 78]
Response: 75 to 110%

Prompt: GET /values?readout=Emax&item= Cc1nc2c(-c3ccc(C(F)(F)F)cc3F)nc(N3CCOC(c4cnn(C)c4)C3)nc2c(=O)n1C (stereo not shown) [Example 10]
Response: 75 to 110%

---

- measured on: Human TREM2 (Homo sapiens, UniProt Q9NZC2)
- Construct: expressed in transfected cells
- measurement protocol: Human TREM2 activity: cellular phosphorylation of Syk (AlphaLISA SureFire Ultra p-SYK) in HEK293/DAP12+TREM2 stable cell line
- Assay type: cell-based
- experimental context: maximal response relative to reference agonist example 1B (remaining examples)
measure: Emax

compound="Cc1nc2c(C3CCC(C)CC3)nc(N3CCOC(c4cnn(C)c4)C3)nc2c(=O)n1C (stereo not shown) [Example 12b]" measured_on="Human TREM2 (Homo sapiens, UniProt Q9NZC2)" measure=Emax reported_measurement="++ (75-110%)"
compound="Cc1nc2c(nc(N3CCO[C@@H](c4cnn(C)c4)C3)nc2[C@H]2CC[C@H](C)CC2)c(=O)n1C (single isomer, unassigned) [Example 71B]" measured_on="Human TREM2 (Homo sapiens, UniProt Q9NZC2)" measure=Emax reported_measurement="+ (<75%)"
compound="Cc1nc2c(-c3ccc(Cl)cc3F)nc(N3CCOC(c4ccn(C)n4)C3)nc2c(=O)n1C (stereo not shown)" measured_on="Human TREM2 (Homo sapiens, UniProt Q9NZC2)" measure=Emax reported_measurement="++ (75-110%)"
compound="Cc1ncc(C2CN(c3nc(-c4ccc(Cl)cc4F)c4nc(C)n(C)c(=O)c4n3)CCO2)cn1 (stereo not shown)" measured_on="Human TREM2 (Homo sapiens, UniProt Q9NZC2)" measure=Emax reported_measurement="+ (<75%)"

---

- measured on: Human TREM2 (Homo sapiens, UniProt Q9NZC2)
- Construct: expressed in transfected cells
- measurement protocol: Human TREM2 activity: cellular phosphorylation of Syk (AlphaLISA SureFire Ultra p-SYK) in HEK293/DAP12+TREM2 stable cell line
- Assay type: cell-based
- experimental context: HEK293; maximal response relative to reference agonist example 1B (remaining examples); read-out: Emax
Measured Emax, listed per entry for reference.

Here are 2 compounds together with their reported answers.
compound="Cc1nc2c(-c3ccc(Cl)cc3F)nc(N3C[C@@H](c4cnn(C)c4)OC4(CCC4)C3)nc2c(=O)n1C (single isomer, unassigned) [Example 109A]" reported_measurement="75 to 110%"
compound="Cc1nc2c(-c3ccc(Cl)cc3F)nc(N3CCOC(C(=O)N(C)C)C3)nc2c(=O)n1C (stereo not drawn) [Example 51]" reported_measurement="75 to 110%"

With those in mind, consider the next compound.
Prompt: Give Emax (Human TREM2 (Homo sapiens, UniProt Q9NZC2)) of the following compound: Cc1nc2c(-c3cc(F)c(F)cc3F)nc(N3C[C@H](c4cnn(C)c4)OC4(CC4)C3)cc2c(=O)n1C (single isomer, unassigned) [Example 146B]
Response: < 75%
